- EXPERIMENTAL_SYSTEM: human calcium-sensing receptor (CaSR) (Homo sapiens)
- Construct: host or cells: HEK293
- Sequence (P41180 20-1078): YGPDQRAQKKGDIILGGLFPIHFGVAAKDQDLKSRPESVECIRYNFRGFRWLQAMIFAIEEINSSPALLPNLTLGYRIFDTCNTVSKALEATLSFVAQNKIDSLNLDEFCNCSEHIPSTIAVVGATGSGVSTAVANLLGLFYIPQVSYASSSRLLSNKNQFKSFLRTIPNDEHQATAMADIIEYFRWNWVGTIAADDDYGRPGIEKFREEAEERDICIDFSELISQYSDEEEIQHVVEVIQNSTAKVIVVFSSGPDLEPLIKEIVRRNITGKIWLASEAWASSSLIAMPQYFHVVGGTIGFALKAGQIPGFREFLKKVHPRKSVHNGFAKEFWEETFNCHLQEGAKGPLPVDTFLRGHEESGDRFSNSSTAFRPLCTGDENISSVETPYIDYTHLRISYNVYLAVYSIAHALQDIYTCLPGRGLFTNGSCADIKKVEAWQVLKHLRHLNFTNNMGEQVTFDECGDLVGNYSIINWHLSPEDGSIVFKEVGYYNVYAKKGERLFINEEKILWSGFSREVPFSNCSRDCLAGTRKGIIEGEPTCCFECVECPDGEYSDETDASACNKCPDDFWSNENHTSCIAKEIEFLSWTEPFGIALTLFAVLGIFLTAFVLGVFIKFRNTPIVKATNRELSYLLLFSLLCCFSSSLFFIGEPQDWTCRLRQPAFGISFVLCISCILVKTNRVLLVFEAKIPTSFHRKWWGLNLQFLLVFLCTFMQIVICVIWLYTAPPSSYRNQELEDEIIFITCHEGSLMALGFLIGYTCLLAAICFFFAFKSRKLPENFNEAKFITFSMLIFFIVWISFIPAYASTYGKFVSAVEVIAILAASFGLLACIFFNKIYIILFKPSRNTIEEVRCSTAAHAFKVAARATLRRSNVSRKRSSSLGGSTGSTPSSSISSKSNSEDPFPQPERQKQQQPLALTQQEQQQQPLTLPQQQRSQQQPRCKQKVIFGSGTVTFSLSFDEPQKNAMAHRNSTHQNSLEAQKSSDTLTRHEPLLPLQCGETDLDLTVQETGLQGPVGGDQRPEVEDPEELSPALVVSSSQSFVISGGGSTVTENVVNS
- PROTOCOL_DETAILS: Agonist activity on human calcium-sensing receptor (IP-One HTRF in stably transfected HEK293/CaSR cells)
- Type: cell-based
- CONDITION_SUMMARY: HEK293/CaSR cells, IP-One production, 60 min at 37° C., CaCl2 1.2 mM; read-out: EC50 for calcium-sensing receptor
Square brackets hold non-standard residues; d marks the D form. Peptide text beside a SMILES is read from it. * marks the point of attachment. Cys(free,S-linked) = N[C@@H](CS*)C(=O)O; d(hLeu) = CC(C)CC[C@@H](N)C(=O)O; dPhg = N[C@@H](C(=O)O)c1ccccc1
I'd appreciate it if you could supply EC50 values for the items below.
Remember to put the unit after the number in your answer.

Exercise: Query (compound): CC(=O)N[C@H](CSSC[C@H](N)C(=O)O)C(=O)N[C@H](CCCNC(=N)N)C(=O)N[C@H](CCCNC(=N)N)C(=O)N[C@H](CCC(C)C)C(=O)N[C@H](CCCNC(=N)N)C(=O)N[C@H](CO)C(=O)N[C@H](CCCNC(=N)N)C(N)=O [Compound 33, Ac-c(C)-r-r-(D-hLeu)-r-s-r-NH2] (Ac-[dC](Cys(free,S-linked))[dR][dR][d(hLeu)][dR][dS][dR]-NH2) ; field requested: EC50
Key: 5.03 µM

Exercise: Query (compound): CC(=O)N[C@H](CSSC[C@H](N)C(=O)O)C(=O)N[C@H](CCCNC(=N)N)C(=O)N[C@H](CCCNC(=N)N)C(=O)N[C@H](CO)C(=O)N[C@H](CCCNC(=N)N)C(=O)NCC(=O)N[C@H](CCCNC(=N)N)C(N)=O [Compound 22, Ac-c(C)-r-r-s-r-G-r-NH2] (Ac-[dC](Cys(free,S-linked))[dR][dR][dS][dR]G[dR]-NH2) ; field requested: EC50
Key: 15.4 µM

Exercise: Query (compound): CC(=O)N[C@H](CSSC[C@H](N)C(=O)O)C(=O)N[C@H](CCCNC(=N)N)C(=O)N[C@H](CCCNC(=N)N)C(=O)N[C@@H](C(=O)N[C@H](CCCNC(=N)N)C(=O)N[C@H](C)C(=O)N[C@H](CCCNC(=N)N)C(N)=O)c1ccccc1 [Compound 11, Ac-c(C)-r-r-(D-Phg)-r-a-r-NH2] (Ac-[dC](Cys(free,S-linked))[dR][dR][dPhg][dR][dA][dR]-NH2) ; field requested: EC50
Key: 15.7 µM

----------
- EXPERIMENTAL_SYSTEM: human calcium-sensing receptor (CaSR) (Homo sapiens)
- Construct: host or cells: HEK293
- PROTOCOL_DETAILS: Agonist activity on human calcium-sensing receptor (IP-One HTRF in stably transfected HEK293/CaSR cells)
- Assay type: cell-based
- CONDITION_SUMMARY: HEK293/CaSR cells, IP-One production, 60 min at 37° C., CaCl2 1.2 mM; read-out: EC50 for calcium-sensing receptor
Square brackets hold non-standard residues; d marks the D form. Peptide text beside a SMILES is read from it. * marks the point of attachment. dPhe(4-NO2) = N[C@H](Cc1ccc([N+](=O)[O-])cc1)C(=O)O; Cys(free,S-linked) = N[C@@H](CS*)C(=O)O; d(hLeu) = CC(C)CC[C@@H](N)C(=O)O; d2Thi = N[C@H](Cc1cccs1)C(=O)O; dCha = N[C@H](CC1CCCCC1)C(=O)O; dAbu = CC[C@@H](N)C(=O)O
MEASURE_NAME: EC50 (µM)
Lab book: enter the figure in µM, no units written.

Exercise: Any idea what EC50 came out for CC(=O)N[C@H](CSSC[C@H](N)C(=O)O)C(=O)N[C@H](CCCNC(=N)N)C(=O)N[C@H](CCCNC(=N)N)C(=O)N[C@H](CC1CCCCC1)C(=O)N[C@H](CCCNC(=N)N)C(=O)N[C@H](C)C(=O)N[C@H](CCCNC(=N)N)C(N)=O [Compound 21, Ac-c(C)-r-r-(D-Cha)-r-a-r-NH2] (Ac-[dC](Cys(free,S-linked))[dR][dR][dCha][dR][dA][dR]-NH2) on human calcium-sensing receptor (CaSR) (Homo sapiens)?
Key: 5.59

Exercise: Any idea what EC50 came out for CC(=O)N[C@H](CSSC[C@H](N)C(=O)O)C(=O)N[C@H](CCCNC(=N)N)C(=O)N[C@H](CCCNC(=N)N)C(=O)N[C@H](Cc1ccc([N+](=O)[O-])cc1)C(=O)N[C@H](CCCNC(=N)N)C(=O)N[C@H](C)C(=O)N[C@H](CCCNC(=N)N)C(N)=O [Compound 14, Ac-c(C)-r-r-[D-Phe(4-NO2)]-r-a-r-NH2] (Ac-[dC](Cys(free,S-linked))[dR][dR][dPhe(4-NO2)][dR][dA][dR]-NH2) on human calcium-sensing receptor (CaSR) (Homo sapiens)?
Key: 4.33

Exercise: Any idea what EC50 came out for CC(=O)N[C@H](CSSC[C@H](N)C(=O)O)C(=O)N[C@H](Cc1c[nH]cn1)C(=O)N[C@H](CCCNC(=N)N)C(=O)N[C@H](CCCNC(=N)N)C(=O)N[C@H](CCCNC(=N)N)C(=O)NCC(=O)N[C@H](CCCNC(=N)N)C(N)=O [Compound 7, Ac-c(C)-h-r-r-r-G-r-NH2] (Ac-[dC](Cys(free,S-linked))[dH][dR][dR][dR]G[dR]-NH2) on human calcium-sensing receptor (CaSR) (Homo sapiens)?
Key: 18.6

Exercise: Any idea what EC50 came out for CC(=O)N[C@H](CSSC[C@H](N)C(=O)O)C(=O)N[C@H](CCCNC(=N)N)C(=O)N[C@H](CCCNC(=N)N)C(=O)N[C@H](Cc1cccs1)C(=O)N[C@H](CCCNC(=N)N)C(=O)N[C@H](C)C(=O)N[C@H](CCCNC(=N)N)C(N)=O [Compound 13, Ac-c(C)-r-r-(D-2-Thi)-r-a-r-NH2] (Ac-[dC](Cys(free,S-linked))[dR][dR][d2Thi][dR][dA][dR]-NH2) on human calcium-sensing receptor (CaSR) (Homo sapiens)?
Key: 1.21

Exercise: Any idea what EC50 came out for CC(=O)N[C@H](CSSC[C@H](N)C(=O)O)C(=O)N[C@H](CCCNC(=N)N)C(=O)N[C@H](CCCNC(=N)N)C(=O)N[C@H](Cc1c[nH]cn1)C(=O)N[C@H](CCCNC(=N)N)C(=O)N[C@H](CO)C(=O)N[C@H](CCCNC(=N)N)C(N)=O [Compound 27, Ac-c(C)-r-r-h-r-s-r-NH2] (Ac-[dC](Cys(free,S-linked))[dR][dR][dH][dR][dS][dR]-NH2) on human calcium-sensing receptor (CaSR) (Homo sapiens)?
Key: 10.8

Exercise: Any idea what EC50 came out for CC[C@@H](NC(=O)[C@@H](CCCNC(=N)N)NC(=O)[C@@H](CCCNC(=N)N)NC(=O)[C@@H](CSSC[C@H](N)C(=O)O)NC(C)=O)C(=O)N[C@H](CCCNC(=N)N)C(=O)NCC(=O)N[C@H](CCCNC(=N)N)C(N)=O [Compound 32, Ac-c(C)-r-r-(D-Abu)-r-G-r-NH2] (Ac-[dC](Cys(free,S-linked))[dR][dR][dAbu][dR]G[dR]-NH2) on human calcium-sensing receptor (CaSR) (Homo sapiens)?
Key: 13.1

Exercise: Any idea what EC50 came out for CC(=O)N[C@H](CSSC[C@H](N)C(=O)O)C(=O)N[C@H](CCCNC(=N)N)C(=O)N[C@H](CCCNC(=N)N)C(=O)N[C@H](CCC(C)C)C(=O)N[C@H](CCCNC(=N)N)C(=O)N[C@H](C)C(=O)N[C@H](CCCNC(=N)N)C(N)=O [Compound 19, Ac-c(C)-r-r-(D-hLeu)-r-a-r-NH2] (Ac-[dC](Cys(free,S-linked))[dR][dR][d(hLeu)][dR][dA][dR]-NH2) on human calcium-sensing receptor (CaSR) (Homo sapiens)?
Key: 2.05

Exercise: Any idea what EC50 came out for CC(=O)N[C@H](CSSC[C@H](N)C(=O)O)C(=O)N[C@H](CCCNC(=N)N)C(=O)N[C@H](CCCNC(=N)N)C(=O)N[C@H](CCC(N)=O)C(=O)N[C@H](CCCNC(=N)N)C(=O)NCC(=O)N[C@H](CCCNC(=N)N)C(N)=O [Compound 23, Ac-c(C)-r-r-q-r-G-r-NH2] (Ac-[dC](Cys(free,S-linked))[dR][dR][dQ][dR]G[dR]-NH2) on human calcium-sensing receptor (CaSR) (Homo sapiens)?
Key: 30.4

Exercise: Any idea what EC50 came out for CC(=O)N[C@H](CSSC[C@H](N)C(=O)O)C(=O)N[C@H](Cc1ccc(O)cc1)C(=O)N[C@H](CCCNC(=N)N)C(=O)N[C@H](CCCNC(=N)N)C(=O)N[C@H](CCCNC(=N)N)C(=O)N[C@H](C)C(=O)N[C@H](CCCNC(=N)N)C(N)=O [Compound 4, Ac-c(C)-(D-Tyr)-r-r-r-a-r-NH2] (Ac-[dC](Cys(free,S-linked))[dY][dR][dR][dR][dA][dR]-NH2) on human calcium-sensing receptor (CaSR) (Homo sapiens)?
Key: 6.92

Exercise: Any idea what EC50 came out for CC(=O)N[C@H](CSSC[C@H](N)C(=O)O)C(=O)N[C@H](Cc1c[nH]c2ccccc12)C(=O)N[C@H](CCCNC(=N)N)C(=O)N[C@H](CCCNC(=N)N)C(=O)N[C@H](CCCNC(=N)N)C(=O)N[C@H](C)C(=O)N[C@H](CCCNC(=N)N)C(N)=O [Compound 5, Ac-c(C)-(D-Trp)-r-r-r-a-r-NH2] (Ac-[dC](Cys(free,S-linked))[dW][dR][dR][dR][dA][dR]-NH2) on human calcium-sensing receptor (CaSR) (Homo sapiens)?
Key: 1.14

Exercise: Any idea what EC50 came out for CC(=O)N[C@H](CSSC[C@H](N)C(=O)O)C(=O)N[C@H](CO)C(=O)N[C@H](CCCNC(=N)N)C(=O)N[C@H](CCCNC(=N)N)C(=O)N[C@H](CCCNC(=N)N)C(=O)N[C@H](CO)C(=O)N[C@H](CCCNC(=N)N)C(N)=O [Compound 6, Ac-c(C)-s-r-r-r-s-r-NH2] (Ac-[dC](Cys(free,S-linked))[dS][dR][dR][dR][dS][dR]-NH2) on human calcium-sensing receptor (CaSR) (Homo sapiens)?
Key: 11.6
